- Assay System: PD-1/PD-L1 interaction (Homo sapiens, UniProt Q9NZQ7)
- Construct: purchased Cisbio 64ICP01PEG
- Sequence (Q9NZQ7 19-238 limits assumed): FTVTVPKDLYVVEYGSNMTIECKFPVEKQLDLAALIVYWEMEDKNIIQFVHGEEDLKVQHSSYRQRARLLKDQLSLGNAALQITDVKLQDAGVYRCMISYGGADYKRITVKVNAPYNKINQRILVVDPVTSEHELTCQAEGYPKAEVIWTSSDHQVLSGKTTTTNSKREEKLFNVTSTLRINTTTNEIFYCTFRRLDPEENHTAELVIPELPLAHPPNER
- Experiment: HTRF-based PD-1/PD-L1 binding assay
- Measurement Conditions: LE = −1.35 logIC50/Nheavy atoms (HTRF IC50)
Measure Name: LE

// below: answered compounds
1. COc1nc(-c2cccc(-c3ccccc3Cl)c2C)ccc1CNCCC(N)=O [Compound A11] ... 0.39
2. COc1nc(-c2cccc(-c3ccc(F)cc3)c2C)ccc1CNCCC(N)=O [Compound A15] ... 0.43

[I] COc1nc(-c2cccc(-c3cccc(F)c3)c2C)ccc1CNCCC(N)=O [Compound A14]
[II] COc1nc(-c2cccc(-c3ccc(C(F)(F)F)cc3F)c2C)ccc1CNCCC(N)=O [Compound A18]
Name the one with the greater LE value, either I or II as given. Refer to your chosen item by its label in the answer. I
(I: 0.41, II: 0.25)
